test system: Apt-M13 (DNA, aptamer) CGGGGGACGTTGCCAACGGTAACGTCGTTGGAT; test: AuNP colorimetric (A650/A520); details: NaCl 36.7 mM added; water, room temperature; 50 nmol/mL analog tested
Test Readout: binding

[[record]]
compound = "C[C@]12CCC(=O)C=C1CC[C@@H]1[C@@H]2[C@@H](O)C[C@@]2(C)[C@H]1CC[C@]2(O)C(=O)CO"
assay_system = "Apt-M13 (DNA, aptamer) CGGGGGACGTTGCCAACGGTAACGTCGTTGGAT"
test_readout = "binding"
result = "no"

[[record]]
compound = "CC(=O)OCC(=O)[C@@]1(O)CC[C@H]2[C@@H]3CCC4=CC(=O)C=C[C@]4(C)[C@H]3C(=O)C[C@@]21C"
assay_system = "Apt-M13 (DNA, aptamer) CGGGGGACGTTGCCAACGGTAACGTCGTTGGAT"
test_readout = "binding"
result = "no"

[[record]]
compound = "CCCC1O[C@@H]2C[C@H]3[C@@H]4CCC5=CC(=O)C=C[C@]5(C)[C@H]4[C@@H](O)C[C@]3(C)[C@]2(C(=O)CO)O1 (stereo partly shown)"
assay_system = "Apt-M13 (DNA, aptamer) CGGGGGACGTTGCCAACGGTAACGTCGTTGGAT"
test_readout = "binding"
result = "no"

[[record]]
compound = "O=C(N[C@H](CO)[C@H](O)c1ccc([N+](=O)[O-])cc1)C(Cl)Cl"
assay_system = "Apt-M13 (DNA, aptamer) CGGGGGACGTTGCCAACGGTAACGTCGTTGGAT"
test_readout = "binding"
result = "no"

